These measurements were taken from ChEMBL document CHEMBL4396896.

Exercise: for every item that follows, state its recorded MIC.
System: Enterococcus faecalis
Experiment description: Antibacterial activity against Enterococcus faecalis ATCC 29212 incubated in MHB II under aerobic condition for 18 hrs using initial inoculum of 5 x 10^5 CFU/ml by serial dilution method
Type: functional
Condition context: ATCC 29212, 18 h

Which measured MIC belongs to C[C@@H]1CC[C@@]2(OC1)O[C@H]1C[C@H]3[C@@H]4CC=C5C[C@@H](O[C@@H]6O[C@H](CO)[C@@H](O)[C@H](O)[C@H]6NC(=O)[C@@H](C)N)CC[C@]5(C)[C@H]4CC[C@]3(C)[C@H]1[C@@H]2C , tested on Enterococcus faecalis?
2 µg/mL

Which measured MIC belongs to C[C@@H]1CC[C@@]2(OC1)O[C@H]1C[C@H]3[C@@H]4CC=C5C[C@@H](O[C@@H]6O[C@H](CO)[C@@H](O)[C@H](O)[C@H]6NC(=O)[C@@H](N)[C@@H](C)O)CC[C@]5(C)[C@H]4CC[C@]3(C)[C@H]1[C@@H]2C , tested on Enterococcus faecalis?
16 µg/mL

Which measured MIC belongs to C[C@@H]1CC[C@@]2(OC1)O[C@H]1C[C@H]3[C@@H]4CC=C5C[C@@H](O[C@@H]6O[C@H](CO)[C@@H](O)[C@H](O)[C@H]6NC(=O)[C@H](C)O)CC[C@]5(C)[C@H]4CC[C@]3(C)[C@H]1[C@@H]2C , tested on Enterococcus faecalis?
> 128 µg/mL

Which measured MIC belongs to C[C@@H]1CC[C@@]2(OC1)O[C@H]1C[C@H]3[C@@H]4CC=C5C[C@@H](O[C@@H]6O[C@H](CO)[C@@H](O)[C@H](O)[C@H]6NC(=O)[C@@H](O)CO)CC[C@]5(C)[C@H]4CC[C@]3(C)[C@H]1[C@@H]2C , tested on Enterococcus faecalis?
> 128 µg/mL

Which measured MIC belongs to CC(=O)N[C@H]1[C@H](O[C@H]2CC[C@@]3(C)C(=CC[C@H]4[C@@H]5C[C@@H]6O[C@]7(CC[C@@H](C)CO7)[C@@H](C)[C@@H]6[C@@]5(C)CC[C@@H]43)C2)O[C@H](CO)[C@@H](O)[C@@H]1O , tested on Enterococcus faecalis?
> 128 µg/mL

Which measured MIC belongs to C[C@@H]1CC[C@@]2(OC1)O[C@H]1C[C@H]3[C@@H]4CC=C5C[C@@H](O[C@@H]6O[C@H](CO)[C@@H](O)[C@H](O)[C@H]6NC(=O)[C@H](C)NC(=O)[C@H](C)N)CC[C@]5(C)[C@H]4CC[C@]3(C)[C@H]1[C@@H]2C , tested on Enterococcus faecalis?
> 128 µg/mL

Which measured MIC belongs to C[C@@H]1CC[C@@]2(OC1)O[C@H]1C[C@H]3[C@@H]4CC=C5C[C@@H](O[C@@H]6O[C@H](CO)[C@@H](O)[C@H](O)[C@H]6NC(=O)[C@@H](N)CCCCN)CC[C@]5(C)[C@H]4CC[C@]3(C)[C@H]1[C@@H]2C , tested on Enterococcus faecalis?
16 µg/mL

Which measured MIC belongs to C[C@@H]1CC[C@@]2(OC1)O[C@H]1C[C@H]3[C@@H]4CC=C5C[C@@H](O[C@@H]6O[C@H](CO)[C@@H](O)[C@H](O)[C@H]6NC(=O)CO)CC[C@]5(C)[C@H]4CC[C@]3(C)[C@H]1[C@@H]2C , tested on Enterococcus faecalis?
> 128 µg/mL

###

Test system: Yarrowia lipolytica
Experiment description: Antifungal activity against Candida lipolytica PCM 2680 incubated in sabouraud liquid medium under aerobic condition for 48 hrs using initial inoculum of 10^3 CFU/ml by serial dilution method
Format: functional
Condition context: PCM 2680, 48 h
Exercise: for every item that follows, state its recorded MIC.

Consider the compound C[C@@H]1CC[C@@]2(OC1)O[C@H]1C[C@H]3[C@@H]4CC=C5C[C@@H](O[C@@H]6O[C@H](CO)[C@@H](O)[C@H](O)[C@H]6NC(=O)[C@@H](N)CO)CC[C@]5(C)[C@H]4CC[C@]3(C)[C@H]1[C@@H]2C and give its measured MIC.
4 µg/mL

Consider the compound C[C@@H]1CC[C@@]2(OC1)O[C@H]1C[C@H]3[C@@H]4CC=C5C[C@@H](O[C@@H]6O[C@H](CO)[C@@H](O)[C@H](O)[C@H]6NC(=O)[C@H](C)O)CC[C@]5(C)[C@H]4CC[C@]3(C)[C@H]1[C@@H]2C and give its measured MIC.
> 128 µg/mL

Consider the compound C[C@@H]1CC[C@@]2(OC1)O[C@H]1C[C@H]3[C@@H]4CC=C5C[C@@H](O[C@@H]6O[C@H](CO)[C@@H](O)[C@H](O)[C@H]6NC(=O)[C@@H](N)[C@@H](C)O)CC[C@]5(C)[C@H]4CC[C@]3(C)[C@H]1[C@@H]2C and give its measured MIC.
4 µg/mL

Consider the compound CC(=O)NCC(=O)N[C@H]1[C@H](O[C@H]2CC[C@@]3(C)C(=CC[C@H]4[C@@H]5C[C@@H]6O[C@]7(CC[C@@H](C)CO7)[C@@H](C)[C@@H]6[C@@]5(C)CC[C@@H]43)C2)O[C@H](CO)[C@@H](O)[C@@H]1O and give its measured MIC.
> 128 µg/mL

Consider the compound CNCC(=O)N[C@H]1[C@H](O[C@H]2CC[C@@]3(C)C(=CC[C@H]4[C@@H]5C[C@@H]6O[C@]7(CC[C@@H](C)CO7)[C@@H](C)[C@@H]6[C@@]5(C)CC[C@@H]43)C2)O[C@H](CO)[C@@H](O)[C@@H]1O and give its measured MIC.
4 µg/mL

Consider the compound C[C@@H]1CC[C@@]2(OC1)O[C@H]1C[C@H]3[C@@H]4CC=C5C[C@@H](O[C@@H]6O[C@H](CO)[C@@H](O)[C@H](O)[C@H]6NC(=O)[C@H](C)N)CC[C@]5(C)[C@H]4CC[C@]3(C)[C@H]1[C@@H]2C and give its measured MIC.
2 µg/mL

Consider the compound C[C@@H]1CC[C@@]2(OC1)O[C@H]1C[C@H]3[C@@H]4CC=C5C[C@@H](O[C@@H]6O[C@H](CO)[C@@H](O)[C@H](O)[C@H]6N)CC[C@]5(C)[C@H]4CC[C@]3(C)[C@H]1[C@@H]2C.Cl and give its measured MIC.
1 µg/mL

Consider the compound C[C@@H]1CC[C@@]2(OC1)O[C@H]1C[C@H]3[C@@H]4CC=C5C[C@@H](O[C@@H]6O[C@H](CO)[C@@H](O)[C@H](O)[C@H]6NC(=O)CO)CC[C@]5(C)[C@H]4CC[C@]3(C)[C@H]1[C@@H]2C and give its measured MIC.
> 128 µg/mL

Consider the compound C[C@@H]1CC[C@@]2(OC1)O[C@H]1C[C@H]3[C@@H]4CC=C5C[C@@H](O[C@@H]6O[C@H](CO)[C@@H](O)[C@H](O)[C@H]6NC(=O)[C@@H](C)N)CC[C@]5(C)[C@H]4CC[C@]3(C)[C@H]1[C@@H]2C and give its measured MIC.
8 µg/mL

Consider the compound C[C@@H]1CC[C@@]2(OC1)O[C@H]1C[C@H]3[C@@H]4CC=C5C[C@@H](O[C@@H]6O[C@H](CO)[C@@H](O)[C@H](O)[C@H]6NC(=O)[C@@H](N)CCCCN)CC[C@]5(C)[C@H]4CC[C@]3(C)[C@H]1[C@@H]2C and give its measured MIC.
4 µg/mL

Consider the compound C[C@@H]1CC[C@@]2(OC1)O[C@H]1C[C@H]3[C@@H]4CC=C5C[C@@H](O[C@@H]6O[C@H](CO)[C@@H](O)[C@H](O)[C@H]6NC(=O)[C@H](C)NC(=O)[C@H](C)N)CC[C@]5(C)[C@H]4CC[C@]3(C)[C@H]1[C@@H]2C and give its measured MIC.
32 µg/mL

Consider the compound C[C@@H]1CC[C@@]2(OC1)O[C@H]1C[C@H]3[C@@H]4CC=C5C[C@@H](O[C@@H]6O[C@H](CO)[C@@H](O)[C@H](O)[C@H]6NC(=O)CN)CC[C@]5(C)[C@H]4CC[C@]3(C)[C@H]1[C@@H]2C and give its measured MIC.
64 µg/mL

Consider the compound C[C@@H]1CC[C@@]2(OC1)O[C@H]1C[C@H]3[C@@H]4CC=C5C[C@@H](O[C@@H]6O[C@H](CO)[C@@H](O)[C@H](O)[C@H]6NC(=O)[C@@H](O)CO)CC[C@]5(C)[C@H]4CC[C@]3(C)[C@H]1[C@@H]2C and give its measured MIC.
2 µg/mL

###

Experiment description: Haemolytic activity in human erythrocytes assessed as haemolytic index by measuring hemoglobin release at 32 mg/L incubated for 1 hr by microplate spectrophotometry
Assay type: ADME, cell-based, Erythrocyte
Condition context: read-out: HI
Property measured: hemolysis at 1 h, 32 mg/L (%)
Give your result in % as a bare value.

Consider the compound C[C@@H]1CC[C@@]2(OC1)O[C@H]1C[C@H]3[C@@H]4CC=C5C[C@@H](O[C@@H]6O[C@H](CO)[C@@H](O)[C@H](O)[C@H]6NC(=O)[C@@H]6CCCN6)CC[C@]5(C)[C@H]4CC[C@]3(C)[C@H]1[C@@H]2C and give its measured hemolysis at 1 h, 32 mg/L.
46
